Hey, just so you know, these numbers are from paper PMC10397247.

Target: T1, P2-AA-12HGe-M
T1 chain: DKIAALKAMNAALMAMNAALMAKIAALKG
Assay: two-hybrid library CCmax;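 note: natural log of median RNA to DNA barcode read ratio; higher means stronger binding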
Settings: mean of both orientations
endpoint: interaction score

Completed entries (count: 3):
binder	interaction score
DEIAALEAQNAALQAQNAALQAEIAALEG [P1-AA-12HGe-Q]	1.64
DEIAALEAANAALAAANAALAAEIAALEG [P1-AA-12HGe-A]	1.4
DEIAALEAWNAALWAWNAALWAEIAALEG [P1-AA-12HGe-W]	0.936

1 = DEIAALEAHNAALHAHNAALHAEIAALEG [P1-AA-12HGe-H]
2 = DEIAALEAMNAALMAMNAALMAEIAALEG [P1-AA-12HGe-M]
Task: Between 1 and 2 , whose measured interaction score reads higher? In your reply, give the label of the chosen option.
Output: 2
